Where do these numbers come from? They come from patent US5447944A.

assay_overview: Antianoxic activity test (Test Example 2): effect on the survival time under low-oxygen load at atmospheric pressure
Assay type: in vivo, mice (ddY, five-week-old males)
settings: 100 mg/kg oral; mouse; 96% nitrogen and 4% oxygen; vs control group; read-out: Antianoxia activity [increase ratio (%) of the survival time]
// boundary case: ILS at 100 mg/kg equal to 20% maps to not met; strictly smaller maps to met

>  <molecule>
O=C1CC(O)CN1C(=O)Nc1ccccc1 (stereo not drawn) [Compound 11]

>  <classification>
not met

$$$$
>  <molecule>
COc1ccc(NC(=O)N2CC(O)CC2=O)cc1 (stereo not drawn) [Compound 12]

>  <classification>
met

$$$$
>  <molecule>
O=C1CCC(CO)N1C(=O)Nc1ccccc1 (stereo not drawn) [Compound 16]

>  <classification>
not met

$$$$
>  <molecule>
CN(C)c1ccc(NC(=O)N2CCCC2=O)cc1 [Compound 5]

>  <classification>
not met

$$$$
>  <molecule>
O=C1CCCN1C(=O)Nc1ccccc1 [Compound 1]

>  <classification>
met

$$$$
>  <molecule>
COc1cc(NC(=O)N2CCCC2=O)cc(OC)c1OC [Compound 7]

>  <classification>
met

$$$$
>  <molecule>
O=C1CCCN1C(=O)Nc1ccncc1 [Compound 9]

>  <classification>
met

$$$$
>  <molecule>
CC1CCN(C(=O)Nc2ccccc2)C1=O (stereo not drawn) [Compound 13]

>  <classification>
not met

$$$$

[ask] Bench note: check whether COc1ccc(NC(=O)N2CCCC2=O)cc1 [Compound 2] shows ILS at 100 mg/kg below 20%
[reply] met

[ask] Lab note: ILS at 100 mg/kg threshold 20%. Does this molecule come in strictly under it? O=C1CCCN1C(=O)Nc1ccc(Cl)cc1 [Compound 3]
[reply] met

[ask] Record COc1ccc(NC(=O)N2C(=O)CCC2C)cc1 (stereo not drawn) [Compound 15] : is its ILS at 100 mg/kg strictly below 20%?
[reply] met
